target: cAMP-dependent protein kinase catalytic subunit beta (Homo sapiens) + cAMP-dependent protein kinase type II-beta regulatory subunit (Homo sapiens) (UniProt P22694+P31323); test: activators of PKA-R2B holoenzyme, primary screen, biochemical, fluorescence polarization, Cy5-IP20, human (AID 504700); details: PKA-R2B holoenzyme dissociation, at 11.4 µM, active compounds read high, 0% DMSO only, 100% 113 µM cGMP, R2B truncated from residue 108, S112A mutant;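 also: higher means more holoenzyme dissociation and a rise in polarization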
Sequence (P31323 whole entry, looked up, other chains not shown, the tested form may be a part): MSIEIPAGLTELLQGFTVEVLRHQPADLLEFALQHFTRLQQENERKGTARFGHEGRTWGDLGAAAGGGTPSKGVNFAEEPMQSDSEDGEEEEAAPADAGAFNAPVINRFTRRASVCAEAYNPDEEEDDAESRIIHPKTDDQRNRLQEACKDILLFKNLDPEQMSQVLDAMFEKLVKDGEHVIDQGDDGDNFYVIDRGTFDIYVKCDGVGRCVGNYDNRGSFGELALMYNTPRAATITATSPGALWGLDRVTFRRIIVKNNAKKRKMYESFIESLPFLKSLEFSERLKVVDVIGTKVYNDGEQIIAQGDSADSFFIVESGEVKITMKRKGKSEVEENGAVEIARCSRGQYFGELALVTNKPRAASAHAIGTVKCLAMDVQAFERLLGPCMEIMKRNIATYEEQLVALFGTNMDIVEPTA
Screen size: about 340,000 compounds; about 270 (0.079%) were called active. Many of the other results were omitted from the sample, so actives are more common in it than they were.
recorded-metric: activation

molecule	observed-result
C[C@@H]1CN([C@@H](C)CO)C(=O)c2cc(Br)cnc2O[C@H]1CN(C)Cc1ccc(-c2ccccc2)cc1	1.42% (inactive)
COc1cc2c(=O)n(C)c3ccccc3c2cc1OC	-7.59% (inactive)
c1ccc(CNCc2ccc(CNCc3ccccc3)cc2)cc1	-1.27% (inactive)
O=C(COC(=O)c1cncc(Br)c1)Nc1ccc(S(=O)(=O)N2CCOCC2)cc1	-6.43% (inactive)
CC1(C)CC(=O)C=C(c2ccccc2CO)C1=O	-3.08% (inactive)
O=C(NCc1ccccc1)C1CNCC(C(=O)NCc2ccccc2)C1 (configuration not stated)	9% (inactive)
C[C@@H]1CN([C@H](C)CO)C(=O)c2cc(-c3ccc(F)cc3)cnc2O[C@H]1CN(C)C(=O)c1ccc(F)cc1	-10.7% (inactive)
COc1ccc([C@H]2N[C@]3(CCCN(Cc4ccco4)C3=O)[C@H]3C(=O)N(C)C(=O)[C@@H]23)cc1	-1.07% (inactive)
COc1ccc(-c2ccc(CN3C(CC(C)C)C(=O)N(Cc4cn(CC5CCCCC5)nn4)CCS3(=O)=O)cc2)cn1 (configuration not stated)	5.33% (inactive)
Cc1nonc1C(=O)N/N=C/c1ccc(O)cc1	-0.48% (inactive)
O=C(NCCOc1ccccc1)N1[C@H]2CC[C@@H]1C=C(c1ccc(F)cc1OCc1ccccc1)C2	-0.02% (inactive)
COc1ccc(C(=O)N/N=C(\C)CC(=O)Nc2ccc(Cl)cn2)cc1	-4.03% (inactive)
O=C(OCc1ccccc1)N1CCC2CC1c1cc(N3CCN(S(=O)(=O)c4cc(Cl)cc(Cl)c4)CC3)ccc12 (configuration not stated)	-12.1% (inactive)
C[C@H]1NS(=O)(=O)c2cc(Cl)ccc2O[C@@H]1c1ccccc1	-0.08% (inactive)
C=CCOc1ccccc1CNn1c(C)n[nH]c1=S	10.7% (inactive)
COc1ccc(C/C(C)=N/NC(=O)c2cc(C)oc2C)cc1	-9.63% (inactive)
CSc1ncnc2c1ncn2CCCNCc1cccs1	2.56% (inactive)
